Biological target: T1, huFLT3-T227-His (human, UniProt P36888 27-543);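 also: octet BLI with scFvs from periplasmic extracts captured by anti-V5 antibody on streptavidin sensors, FLT3 protein associating 2 min then dissociating 5 min, 1:1 Langmuir fit for off-rate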
T1 construct: extracellular domain; also called FLT3 WT
Assay: BLI
parameter_measured: binding result

- Polypeptide No. 236 (scFv, V domains shown, scFv) VH: QVQLVQSGAEVKKPGSSVKVSCKASGGTFSSYAISWVRQAPGQGLEWMGGIIPILGIANYAQKFQGRVTITADESTSTAYMELSSLRSEDTAVYYCAHVDGYGMDVWGQGTTVTVSS VL: EIVMTQSPATLSVSPGERATLSCRASQSVSSNLAWYQQKPGQAPRLLIYDVSSRATGIPARFSGSGSGTEFTLTISSLQSEDFAVYYCQQLDAYPLTFGGGTKVEIKR: binds

Origin of values: patent US20240101668A1
